I'd appreciate it if you could supply z-score values for the items below.
- protocol.text: blockers of DNA damage checkpoint Chk1 activation – imaging, HeLa, hydroxyurea, phospho-Chk1 nuclear intensity, primary screen (AID 1187); note: test concentration not given here
- study.conditions: hydroxyurea-induced phospho-Chk1 immunofluorescence imaging, higher = more signal
Form field (numeric): enter value without unit.

Returns the measured z-score for the input molecule. Input: CCCC[C@@H](O)C1=C(COc2ccccc2)Cn2c(=O)n(-c3ccccc3)c(=O)n2[C@H]1CO
0.347

What does the data say about its z-score? Entry: CN(C)C(=O)[C@]1(Cc2ccccc2N=[N+]=[N-])N=C(c2ccc(OCCCO)cc2)O[C@@H]1c1ccccc1CN=[N+]=[N-]
0.269

Reported z-score for COCCCNC(=O)[C@@H]1c2ccccc2C(=O)N(c2ccc(C)cn2)[C@H]1c1ccc(CO)cc1 : what is it?
0.236

For COc1ccccc1CN1C(=O)c2ccccc2[C@@]2(Cc3ccccc3N(C3CC3)C2=O)[C@@H]1c1ccc(CO)cc1 , what is its reported z-score?
0.491

Can you share its z-score? I mean this molecule: COC(=O)[C@@]1(Cc2ccc(OC)cc2)[C@H]2c3cc(C(=O)N(C)C)n(Cc4cc(F)c(F)c(F)c4)c3C[C@H]2CN1C(=O)c1ccccc1
-0.186

What value of z-score has been reported for the following molecule? C=C(CCCC)/C(=C/C[C@H](OC(=O)c1ccncc1)c1ccc(CO)o1)c1cc(C(=O)OC)ccc1OC
-1.02

z-score for Cc1cc(C)c(C(O)C2C=CC3C(=O)N(c4ccccc4)C(=O)C3N2Nc2ccc([N+](=O)[O-])cc2)c(C)c1 (stereo not given) ?
0.596

For the molecule COC(=O)[C@@]1(Cc2ccc(OC)cc2)[C@H]2c3cc(C(=O)N(C)C)n(Cc4cc(C)n(C)n4)c3C[C@H]2CN1C(=O)c1ccccc1 , what z-score is on record?
0.263

# input molecule: COc1ccc([Si](C)(C)[C@@H]2[C@@H](CCO)O[C@]3(C(=O)N(Cc4ccccc4)c4ccc(N5C(=O)COc6ccccc65)cc43)[C@H]2C)cc1 ; wanted: its z-score
-1.47

Value lookup for z-score; key = COC(=O)[C@@]1(Cc2ccccc2)[C@H]2c3cc(C(=O)N(C)C)n(Cc4ccc(O)c(OC)c4)c3C[C@H]2CN1C(=O)c1ccccc1
-0.0257

Returns the measured z-score for the input molecule. Input: CCCCC(=C=CC[C@H](O)c1ccccc1OCCO)C[C@H](O)c1ccccn1
0.113

Quick one: z-score of C#CCOC(=O)N[C@H](C=CCCCC)c1ccccc1 ?
0.195

What value of measured z-score is listed for C=CCOC(=O)[C@H]1[C@@H]2C(=O)O[C@@H](c3ccccc3)[C@@H](c3ccccc3)N2[C@@H](c2ccc(OCCOC(=O)[C@H]3C[C@H]4C(=O)N[C@@H](CCCCN(C)C)C(=O)N4[C@H]3c3ccc(O)cc3)cc2)[C@]12C(=O)Nc1ccccc12 ?
-0.308

For [N-]=[N+]=Nc1ccccc1[C@@H]1OC(c2ccc(OCCCO)cc2)=N[C@]1(CCS(=O)(=O)c1ccccc1)C(=O)NCc1ccccc1 , what is its reported z-score?
-0.184

Return reported z-score; argument: C=CCOc1ccc([C@@H]2CC=C(C(=O)OCC)[C@H](c3cccc(Br)c3)N2S(=O)(=O)c2ccc(C)cc2)cc1
0.295
